Target: human DLL4, full length, on cells (human, UniProt Q9NR61 27-685)
Sequence (Q9NR61 27-685 limits assumed): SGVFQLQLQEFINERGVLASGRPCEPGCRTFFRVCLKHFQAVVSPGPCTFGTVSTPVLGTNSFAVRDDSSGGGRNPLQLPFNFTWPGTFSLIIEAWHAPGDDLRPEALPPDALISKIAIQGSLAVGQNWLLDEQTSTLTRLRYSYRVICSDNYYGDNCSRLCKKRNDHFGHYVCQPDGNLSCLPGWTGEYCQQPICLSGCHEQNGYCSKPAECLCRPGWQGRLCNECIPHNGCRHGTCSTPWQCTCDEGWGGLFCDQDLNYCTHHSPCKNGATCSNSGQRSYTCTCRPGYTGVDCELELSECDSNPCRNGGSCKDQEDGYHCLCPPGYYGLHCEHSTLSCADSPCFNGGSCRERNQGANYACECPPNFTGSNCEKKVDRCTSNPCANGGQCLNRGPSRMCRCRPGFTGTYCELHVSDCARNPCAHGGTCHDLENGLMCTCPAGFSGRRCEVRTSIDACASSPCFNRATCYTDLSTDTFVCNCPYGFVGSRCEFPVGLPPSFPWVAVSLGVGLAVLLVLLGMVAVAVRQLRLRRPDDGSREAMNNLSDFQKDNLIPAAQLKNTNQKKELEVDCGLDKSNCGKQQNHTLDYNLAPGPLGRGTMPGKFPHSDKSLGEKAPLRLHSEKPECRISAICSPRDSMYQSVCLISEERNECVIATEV
Test: cell-based or functional assay
property name: Reporter Assay (EC50, nM)
Expressed in nM, but write only the number.

| binder | property name | output unit | numeric value |
| --- | --- | --- | --- |
| h1A11.16 (antibody, V domains shown, humanized IgG; also called VH.2a/VL.2a 1A11) VH: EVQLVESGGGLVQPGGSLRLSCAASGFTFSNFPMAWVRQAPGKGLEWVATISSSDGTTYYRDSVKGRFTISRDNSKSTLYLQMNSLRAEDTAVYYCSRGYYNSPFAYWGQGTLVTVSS VL: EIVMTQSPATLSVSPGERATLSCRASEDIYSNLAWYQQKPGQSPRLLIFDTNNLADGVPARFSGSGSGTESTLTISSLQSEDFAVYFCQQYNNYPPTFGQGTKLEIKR | Reporter Assay (EC50, nM) | nM | 2.61 |

Please examine the following record next.
Challenge: Given the entry h1A11.15 (antibody, V domains shown, humanized IgG; also called VH.2a/VL.1b 1A11) VH: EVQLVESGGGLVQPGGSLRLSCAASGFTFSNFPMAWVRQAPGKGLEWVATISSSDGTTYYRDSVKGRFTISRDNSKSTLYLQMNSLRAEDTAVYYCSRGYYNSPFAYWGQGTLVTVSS VL: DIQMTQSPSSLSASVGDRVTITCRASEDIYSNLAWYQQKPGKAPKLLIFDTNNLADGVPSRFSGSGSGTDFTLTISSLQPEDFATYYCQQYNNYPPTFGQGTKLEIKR , report its measured Reporter Assay (EC50, nM).
Response given: 5.4
